B1: H2-Kb / E4 (parent)
chain 1: AQSVTQPDARVTVSEGASLQLRCKYSYSGTPYLFWYVQYPRQGLQLLLKYYSGDPVVQGVNGFEAEFIKSNSSFHLRKASVHWSDSAVYFCAVSAGQGGSAKLIFGEGTKLTVSS
chain 2: GGIITQTPKFLIGQEGQKLTLKCQQNFNHDTMYWYRQDSGKGLRLIYYSITENDLQKGDLSEGYDASREKKSSFSLTVTSAQKNEMAVFLCASSIWGDSYEQYFGPGTRLTVL
chain 3: not shown
chain 4: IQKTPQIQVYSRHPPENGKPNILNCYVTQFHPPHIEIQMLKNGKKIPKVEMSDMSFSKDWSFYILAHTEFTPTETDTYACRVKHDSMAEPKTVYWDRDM
chain 5: SIINFEKL

Variants of: B1
Test: % of reporter cells activated (NFAT-GFP), raw; also: test concentration or dose not given here
Settings: with E4
Some variants, each annotated with its measured ratio to parent.
Form rule: numeric answer, no unit written next to it.

{"MUTATION_KEY": "chain 5 I3Q", "ratio to parent": 0.81}
{"MUTATION_KEY": "chain 5 N4D", "ratio to parent": 0.794}
{"MUTATION_KEY": "chain 5 F5Q", "ratio to parent": 0.778}
{"MUTATION_KEY": "chain 5 N4R", "ratio to parent": 0.905}

ratio to parent in this record for chain 5 N4V : 0.825

ratio to parent in this record for chain 5 K7T : 0.378

ratio to parent in this record for chain 5 N4E : 0.603

Provenance of the data: paper PMC11480844
